Target: Follistatin-related protein 3 (Homo sapiens) (UniProt O95633)
Sequence (O95633 whole entry, looked up): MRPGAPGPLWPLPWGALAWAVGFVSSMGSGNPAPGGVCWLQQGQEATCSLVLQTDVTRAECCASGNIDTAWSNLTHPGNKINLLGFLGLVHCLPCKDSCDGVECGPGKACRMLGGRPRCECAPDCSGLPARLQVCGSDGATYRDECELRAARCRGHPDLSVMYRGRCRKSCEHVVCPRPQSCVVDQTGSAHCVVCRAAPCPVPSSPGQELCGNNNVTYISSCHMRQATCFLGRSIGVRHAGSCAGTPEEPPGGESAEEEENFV
Test: FSTL3 binders on small-molecule microarrays, primary screen, biochemical, small-molecule microarray, 635 nm fluorescence (AID 1105);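 note: score merges emission near 667 nm and signal to noise per printed spot across three slides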
Details: FSTL3 binding, higher = more signal
Catalogue of composite z-score readings, one per entry.
quantity.kind: composite z-score

item_smiles=CCOC(=O)C[C@H]1[C@H](OC(=O)c2ccccc2-c2ccccc2)[C@@H](NC(=O)CC(C)C)c2cc(OCCCO)ccc2N1C(=O)c1ccccc1 quantity_kind="composite z-score" observed=1.26
item_smiles=COC(=O)[C@@]1(Cc2ccc(F)cc2)[C@H]2c3cc(C(=O)N(C)C)n(Cc4cccc5ccccc45)c3C[C@H]2CN1C(=O)c1ccccc1 quantity_kind="composite z-score" observed=-0.242
item_smiles=CC(C)C[C@@H]1NC(=O)[C@H]2C[C@@H](C(=O)O)[C@@H](c3cccc(OCCO)c3)N2C1=O quantity_kind="composite z-score" observed=1.2
item_smiles=Cc1ccc(S[C@]2(C(=O)NC(C)C)CC(=O)N(Cc3ccccc3)[C@@H]2c2ccc(CO)cc2I)cc1 quantity_kind="composite z-score" observed=-0.911
